Measurement target: Recombinant human FAP (Homo sapiens)
Construct: purchased R&D systems
Sequence (Q12884 whole entry): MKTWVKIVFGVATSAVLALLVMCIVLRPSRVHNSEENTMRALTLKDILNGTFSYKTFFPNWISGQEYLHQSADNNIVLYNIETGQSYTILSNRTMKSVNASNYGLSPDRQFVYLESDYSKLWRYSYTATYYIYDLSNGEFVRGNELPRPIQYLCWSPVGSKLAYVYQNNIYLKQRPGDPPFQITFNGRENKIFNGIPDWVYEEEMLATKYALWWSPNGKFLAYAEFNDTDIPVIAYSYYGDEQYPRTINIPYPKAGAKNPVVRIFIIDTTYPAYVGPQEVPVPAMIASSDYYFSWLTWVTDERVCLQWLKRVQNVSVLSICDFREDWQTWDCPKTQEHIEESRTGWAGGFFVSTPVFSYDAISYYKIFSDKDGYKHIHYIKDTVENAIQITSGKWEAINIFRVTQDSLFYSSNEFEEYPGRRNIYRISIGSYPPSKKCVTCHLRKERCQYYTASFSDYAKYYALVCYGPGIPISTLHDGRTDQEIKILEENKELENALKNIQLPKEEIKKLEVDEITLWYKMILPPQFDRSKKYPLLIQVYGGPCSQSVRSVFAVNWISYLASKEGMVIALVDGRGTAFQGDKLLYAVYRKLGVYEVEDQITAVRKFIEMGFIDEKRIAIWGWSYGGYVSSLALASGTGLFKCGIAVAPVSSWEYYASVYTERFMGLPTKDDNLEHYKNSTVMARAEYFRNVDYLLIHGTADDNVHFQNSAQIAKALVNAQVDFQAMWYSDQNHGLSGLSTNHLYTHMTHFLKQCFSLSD
Assay: FAP inhibition, fluorogenic substrate Z-Gly-Pro-AMC
Format: biochemical
Measurement context: 25° C., Z-Gly-Pro-AMC substrate
Quantity measured: IC50 (nM)

(P) COc1ccc2c(C(=O)N[C@H]3CCN(CC(=O)N4C[C@@H](F)C[C@H]4C#N)C3)coc2c1
(Q) N#C[C@@H]1CCCN1C(=O)CN1CC[C@H](Nc2ccnc3ccccc23)C1
Please indicate which item has the smaller measured IC50: P versus Q When you have decided, please share the label of that item.
Q
(Q: 2.6 nM, P: 12.3 nM)

(A) N#C[C@@H]1C[C@H](F)CN1C(=O)CN1CCC(Oc2ccnc3ccc(F)cc23)CC1
(B) N#C[C@@H]1CC(F)(F)CN1C(=O)CN1CC[C@H](Nc2cccc3ccsc23)C1
(C) N#C[C@@H]1CCCN1C(=O)CN1CC[C@H](Oc2ccnc3cc(C(F)(F)F)ccc23)C1
(D) N#C[C@@H]1CCCN1C(=O)CN1CC[C@H](NC(=O)c2ccnc3ccccc23)C1
(E) N#C[C@@H]1CCCN1C(=O)CN1CC[C@H](C(=O)Nc2ccnc3ccccc23)C1
Thanks in advance: please rank these 5 entries by IC50, highest to lowest. Form entry: labels listed in requested order.
D, E, C, B, A

----------
Measurement target: DPP4 (Homo sapiens, UniProt P27487)
Sequence (P27487 whole entry): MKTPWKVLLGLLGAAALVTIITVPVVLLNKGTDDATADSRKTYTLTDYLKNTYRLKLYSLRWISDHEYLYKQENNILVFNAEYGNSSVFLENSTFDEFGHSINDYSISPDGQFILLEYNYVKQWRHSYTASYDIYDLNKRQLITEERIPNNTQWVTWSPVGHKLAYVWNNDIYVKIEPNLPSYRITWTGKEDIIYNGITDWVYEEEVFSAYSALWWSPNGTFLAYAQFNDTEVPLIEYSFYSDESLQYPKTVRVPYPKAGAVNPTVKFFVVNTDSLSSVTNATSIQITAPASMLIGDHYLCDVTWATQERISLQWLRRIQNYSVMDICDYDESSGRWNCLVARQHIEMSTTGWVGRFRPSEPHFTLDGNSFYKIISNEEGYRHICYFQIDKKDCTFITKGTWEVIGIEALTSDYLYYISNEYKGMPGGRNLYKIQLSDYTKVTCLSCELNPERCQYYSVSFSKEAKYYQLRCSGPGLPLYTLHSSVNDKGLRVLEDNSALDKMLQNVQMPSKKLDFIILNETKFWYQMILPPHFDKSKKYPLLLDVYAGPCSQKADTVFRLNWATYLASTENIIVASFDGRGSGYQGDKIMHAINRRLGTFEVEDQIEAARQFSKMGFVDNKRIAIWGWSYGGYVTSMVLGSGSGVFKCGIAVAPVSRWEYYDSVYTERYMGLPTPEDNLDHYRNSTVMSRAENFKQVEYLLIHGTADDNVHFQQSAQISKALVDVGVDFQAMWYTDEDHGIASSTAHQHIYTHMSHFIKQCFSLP
Assay: DPP4 inhibition, fluorogenic substrate H-Gly-Pro-AMC
Format: biochemical
Set-up: purchased R&D Systems
Measurement context: recombinant human DPP4
Quantity measured: IC50 (µM)

N#C[C@@H]1C[C@H](F)CN1C(=O)CN1CCC(Nc2ccc(C(=O)Nc3ccncc3)c3ncccc23)CC1 [Example 406] : 2.7
N#C[C@@H]1C[C@H](F)CN1C(=O)CN1CC[C@H](Nc2cc(C(F)(F)F)cc3ncccc23)C1 [Example 258] : 1.83
N#Cc1ccc2c(NC3CCN(CC(=O)N4C[C@@H](F)C[C@H]4C#N)CC3)cccc2n1 [Example 335] : 7.33

(1) N#C[C@@H]1CCCN1C(=O)CN1CCC(Nc2ccc(C(=O)Nc3ccccn3)c3ncccc23)CC1 [Example 399]
(2) COc1cnc2cccc(N[C@@H]3CCN(CC(=O)N4CCC[C@H]4C#N)C3)c2c1 [Example 204]
// which entry has the larger IC50 value, 1 or 2 ? Respond with the label that goes with your answer.
1

(a) Cc1ccc2c(OC3CCN(CC(=O)N4C[C@@H](F)C[C@H]4C#N)CC3)ccnc2c1 [Example 432]
(b) CN(c1ccc(F)c2ncccc12)[C@H]1CCN(CC(=O)N2C[C@@H](F)C[C@H]2C#N)C1 [Example 158]
Please tell me which of the two, a or b , has the higher reported IC50 value. Use the label to indicate which entry you chose.
a
(a: 6.58 µM, b: 2.09 µM)

(1) N#C[C@@H]1CCCN1C(=O)CN1CC[C@@H](Nc2cc(F)cc3ncccc23)C1 [Example 197]
(2) N#C[C@@H]1C[C@H](F)CN1C(=O)CN1CC[C@@H](Nc2ccc(C(F)(F)F)c3ncccc23)C1 [Example 183]
Select one. Lower IC50: 1 or 2 # respond with the chosen item's label
2

(a) N#C[C@@H]1C[C@H](F)CN1C(=O)CN1CCC(Nc2ccnc(Br)c2)CC1 [Example 383]
(b) N#C[C@@H]1C[C@H](F)CN1C(=O)CN1CC[C@@H](Nc2cc(F)c3ncccc3c2)C1 [Example 214]
Between item a and item b , which reported IC50 is smaller? Please respond with the label that marks your chosen entry.
b

(1) CN(C)C(=O)c1ccc(N[C@H]2CCN(CC(=O)N3C[C@@H](F)C[C@H]3C#N)C2)c2cccnc12 [Example 282]
(2) N#C[C@@H]1C[C@H](F)CN1C(=O)CN1CC[C@@H](Nc2cc(C(F)(F)F)c3ncccc3c2)C1 [Example 216]
Lab note: check whether 1 or 2 shows the higher recorded IC50. Response format: the label of the selected entry.
1
(1: 3.47 µM, 2: 1.35 µM)

(1) N#C[C@@H]1C[C@H](F)CN1C(=O)CN1CCC(Nc2ccc(C(=O)Nc3ccccn3)c3ncccc23)CC1 [Example 404]
(2) N#C[C@@H]1C[C@H](F)CN1C(=O)CN1CC[C@H](Nc2cnc3ccccc3c2)C1 [Example 249]
(3) CN(c1cccc2ncc(F)cc12)[C@H]1CCN(CC(=O)N2C[C@@H](F)C[C@H]2C#N)C1 [Example 156]
(4) N#C[C@@H]1CCCN1C(=O)CN1CCC(Oc2cccc3ncc(F)cc23)CC1 [Example 429]
Rank items: key IC50, increasing. Answer format: the labels, ordered as requested.
3, 2, 1, 4
(3: 0.736 µM, 2: 1.45 µM, 1: 4.73 µM, 4: 37.2 µM)

(I) COc1ccc2nccc(N[C@@H]3CCN(CC(=O)N4CCC[C@H]4C#N)C3)c2c1 [Example 224]
(II) N#C[C@@H]1CCCN1C(=O)CN1CC[C@H](Nc2ccc(C(=O)Nc3ccncc3)c3ncccc23)C1 [Example 291]
// select label with min value of measured IC50 from [ I , II ] Give the label of your selection.
II
(II: 12.9 µM, I: 54.2 µM)
